Each entry below carries its recorded pIC50.
# testSystem: ATM (Homo sapiens)
# Construct: detecting phosphorylation of Chk2 in a human non-small cell lung cancer cell line NCI-H460 (ATCC company); host or cells: NCI-H460 human non-small cell lung cancer cells
# method: ATM inhibition test (phosphorylation of Chk2 generated by ionizing radiation, AlphaScreen SureFire)
# Assay type: cell-based
# conditionInfo: phosphorylated Chk2 in NCI-H460 cells, ionizing radiation 8Gy, 1 hour after test compound treatment; read-out: ATM inhibitory activity
pIC50: −log10 of the molar value.

compound	pIC50
N#Cc1cccc(CNc2ccc3c(c2)Cc2ccnc(-c4cc(N5CCOCC5)cc(=O)[nH]4)c2O3)n1 [Example 2-41-15]	6.30 to 7.00
O=c1cc(N2CCOCC2)cc(-c2cccc3c2Sc2ccc(NCc4cncc(-n5cccc5)c4)cc2S3)[nH]1 [Example 1-12-19]	> 7.00
CCC(C(=O)Nc1ccc2c(c1)Sc1cccc(-c3cc(N4CCOCC4)cc(=O)[nH]3)c1S2)N1CCCC1 (stereo not shown) [Example 1-6-1]	6.30 to 7.00
CC(Nc1ccc2c(c1)Cc1cccc(-c3cc(N4CCOCC4)cc(=O)[nH]3)c1O2)c1cncc(F)c1 (stereo not shown) [Example 2-14-29]	6.30 to 7.00
COc1ncccc1CNc1ccc2c(c1)Sc1cccc(-c3cc(N4CCOCC4)cc(=O)[nH]3)c1O2 [Example 4-8-9]	6.30 to 7.00

## Input Write down pIC50 measured for item CCCC(Nc1ccc2c(c1)Sc1cccc(-c3cc(N4CCOCC4)cc(=O)[nH]3)c1O2)c1cncc(OC)c1 (stereo not shown) [Example 4-4-26]
## Output 6.30 to 7.00

## Input Write down pIC50 measured for item Cc1ccc(CNc2ccc3c(c2)Cc2ccnc(-c4cc(N5CCOCC5)cc(=O)[nH]4)c2O3)nc1 [Example 2-42-2]
## Output 6.30 to 7.00

###

Each entry below carries its recorded IC50.
# testSystem: ATM (Homo sapiens, UniProt Q13315)
# Construct: detecting phosphorylation of Chk2 in a human non-small cell lung cancer cell line NCI-H460 (ATCC company); host or cells: NCI-H460 human non-small cell lung cancer cells
# Sequence (Q13315 whole entry): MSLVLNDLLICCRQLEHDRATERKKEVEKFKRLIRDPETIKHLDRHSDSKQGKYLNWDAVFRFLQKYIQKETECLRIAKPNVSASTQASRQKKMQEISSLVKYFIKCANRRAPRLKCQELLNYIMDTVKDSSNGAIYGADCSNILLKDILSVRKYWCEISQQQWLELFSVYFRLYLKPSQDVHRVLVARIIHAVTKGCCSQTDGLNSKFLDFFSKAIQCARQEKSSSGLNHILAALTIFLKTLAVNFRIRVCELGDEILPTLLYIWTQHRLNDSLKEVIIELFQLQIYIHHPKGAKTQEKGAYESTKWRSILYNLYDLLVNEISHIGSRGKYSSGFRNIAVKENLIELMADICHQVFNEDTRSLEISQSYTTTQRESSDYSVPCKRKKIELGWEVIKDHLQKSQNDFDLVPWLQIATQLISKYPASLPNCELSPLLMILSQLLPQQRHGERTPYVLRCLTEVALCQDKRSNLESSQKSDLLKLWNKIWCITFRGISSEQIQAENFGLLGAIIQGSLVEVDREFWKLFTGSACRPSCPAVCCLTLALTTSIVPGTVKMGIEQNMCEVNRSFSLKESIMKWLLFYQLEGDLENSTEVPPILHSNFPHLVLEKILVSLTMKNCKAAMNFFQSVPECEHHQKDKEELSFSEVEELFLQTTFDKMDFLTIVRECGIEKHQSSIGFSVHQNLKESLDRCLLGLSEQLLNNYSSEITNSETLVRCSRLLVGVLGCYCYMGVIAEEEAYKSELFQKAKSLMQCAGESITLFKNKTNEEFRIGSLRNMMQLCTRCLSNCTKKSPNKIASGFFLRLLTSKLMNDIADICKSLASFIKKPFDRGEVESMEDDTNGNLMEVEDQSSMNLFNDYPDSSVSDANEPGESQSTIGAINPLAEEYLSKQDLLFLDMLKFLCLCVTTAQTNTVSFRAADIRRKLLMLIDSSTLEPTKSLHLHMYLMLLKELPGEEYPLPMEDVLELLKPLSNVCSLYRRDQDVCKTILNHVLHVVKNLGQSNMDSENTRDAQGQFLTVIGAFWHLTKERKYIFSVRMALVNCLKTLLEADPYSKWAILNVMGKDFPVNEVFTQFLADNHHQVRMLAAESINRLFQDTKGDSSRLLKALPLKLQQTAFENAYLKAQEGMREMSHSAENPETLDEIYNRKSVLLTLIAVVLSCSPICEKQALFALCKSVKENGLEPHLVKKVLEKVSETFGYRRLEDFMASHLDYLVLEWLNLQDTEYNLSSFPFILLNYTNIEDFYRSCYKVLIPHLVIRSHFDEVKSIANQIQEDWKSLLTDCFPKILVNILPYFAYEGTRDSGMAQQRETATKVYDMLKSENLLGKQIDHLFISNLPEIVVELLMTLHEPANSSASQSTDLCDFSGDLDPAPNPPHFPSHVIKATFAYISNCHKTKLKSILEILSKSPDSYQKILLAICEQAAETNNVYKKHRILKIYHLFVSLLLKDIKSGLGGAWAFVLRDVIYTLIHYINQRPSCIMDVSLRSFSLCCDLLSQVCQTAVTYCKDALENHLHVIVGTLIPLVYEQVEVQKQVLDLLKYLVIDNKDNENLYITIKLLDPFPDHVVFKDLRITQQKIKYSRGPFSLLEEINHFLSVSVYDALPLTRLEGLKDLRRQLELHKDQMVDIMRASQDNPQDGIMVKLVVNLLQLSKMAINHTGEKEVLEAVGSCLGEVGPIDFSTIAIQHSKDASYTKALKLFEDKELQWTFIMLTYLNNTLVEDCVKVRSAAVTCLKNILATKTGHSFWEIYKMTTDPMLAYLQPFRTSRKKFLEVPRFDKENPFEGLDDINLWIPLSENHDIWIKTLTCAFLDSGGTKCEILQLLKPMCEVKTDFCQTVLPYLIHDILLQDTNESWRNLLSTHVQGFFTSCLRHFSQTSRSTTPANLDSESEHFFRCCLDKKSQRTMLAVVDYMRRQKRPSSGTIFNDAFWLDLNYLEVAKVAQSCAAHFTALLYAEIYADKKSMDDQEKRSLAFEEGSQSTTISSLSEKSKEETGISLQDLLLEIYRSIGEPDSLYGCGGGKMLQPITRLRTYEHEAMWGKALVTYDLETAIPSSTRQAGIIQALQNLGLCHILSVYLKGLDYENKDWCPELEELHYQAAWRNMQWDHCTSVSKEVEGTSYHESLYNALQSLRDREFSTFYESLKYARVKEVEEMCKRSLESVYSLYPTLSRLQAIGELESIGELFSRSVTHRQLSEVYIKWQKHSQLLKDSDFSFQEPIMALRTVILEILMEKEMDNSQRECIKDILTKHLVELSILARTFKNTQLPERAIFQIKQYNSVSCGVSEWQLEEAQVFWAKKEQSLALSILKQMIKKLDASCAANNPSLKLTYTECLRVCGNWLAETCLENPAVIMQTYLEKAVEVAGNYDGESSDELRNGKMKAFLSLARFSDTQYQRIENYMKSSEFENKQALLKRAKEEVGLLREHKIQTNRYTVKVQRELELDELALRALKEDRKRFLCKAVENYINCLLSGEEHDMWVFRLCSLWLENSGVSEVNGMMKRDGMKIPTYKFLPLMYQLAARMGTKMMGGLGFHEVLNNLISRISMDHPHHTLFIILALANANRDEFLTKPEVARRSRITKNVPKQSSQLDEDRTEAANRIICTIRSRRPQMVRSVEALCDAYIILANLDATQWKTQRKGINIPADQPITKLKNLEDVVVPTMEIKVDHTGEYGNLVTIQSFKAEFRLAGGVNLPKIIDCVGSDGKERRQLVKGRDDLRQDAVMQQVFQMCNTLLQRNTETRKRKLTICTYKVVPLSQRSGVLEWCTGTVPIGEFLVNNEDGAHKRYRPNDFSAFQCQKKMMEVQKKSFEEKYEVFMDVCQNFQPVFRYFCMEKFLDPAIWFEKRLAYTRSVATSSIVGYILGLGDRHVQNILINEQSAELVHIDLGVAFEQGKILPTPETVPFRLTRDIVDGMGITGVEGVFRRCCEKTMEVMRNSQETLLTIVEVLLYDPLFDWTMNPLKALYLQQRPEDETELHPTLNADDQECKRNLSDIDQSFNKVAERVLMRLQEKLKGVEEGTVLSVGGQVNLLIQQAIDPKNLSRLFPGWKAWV
# method: ATM inhibition test (phosphorylation of Chk2 generated by ionizing radiation, AlphaScreen SureFire)
# Type: cell-based
# conditionInfo: phosphorylated Chk2 in NCI-H460 cells, ionizing radiation 8Gy, 1 hour after test compound treatment; read-out: ATM inhibitory activity

compound	IC50
O=c1cc(N2CCOCC2)cc(-c2cccc3c2Sc2ccc(NCc4cnccn4)cc2S3)[nH]1	100 to 500 nM
COCCNCc1cccc(C(C)Nc2ccc3c(c2)Sc2cccc(-c4cc(N5CCOCC5)cc(=O)[nH]4)c2S3)n1 (centres unmarked)	100 to 500 nM
COc1ccc(CCN2CCC(Nc3ccc4c(c3)Sc3cccc(-c5cc(N6CCOCC6)cc(=O)[nH]5)c3S4)CC2)cc1	100 to 500 nM
CC(Nc1ccc2c(c1)Cc1ccnc(-c3cc(N4CCOCC4)cc(=O)[nH]3)c1O2)c1cccc(F)n1 (centres unmarked)	100 to 500 nM
COc1cncc(C(C)Nc2ccc3c(c2)Cc2cccc(-c4cc(N5CCOCC5)cc(=O)[nH]4)c2O3)n1 (centres unmarked)	100 to 500 nM

## Input Write down IC50 measured for item O=c1cc(N2CCOCC2)cc(-c2cccc3c2Oc2ccc(NCc4ccc(Cl)s4)cc2C3)[nH]1
## Output < 100 nM

## Input Write down IC50 measured for item Cc1cnc(C(COCCN(C)C)Nc2ccc3c(c2)Sc2cccc(-c4cc(N5CCOCC5)cc(=O)[nH]4)c2S3)nc1 (centres unmarked)
## Output 100 to 500 nM

## Input Write down IC50 measured for item CCCC(Nc1ccc2c(c1)Sc1cccc(-c3cc(N4CCOCC4)cc(=O)[nH]3)c1S2)c1cncc(OC)c1 (centres unmarked)
## Output 100 to 500 nM

## Input Write down IC50 measured for item CC(Nc1ccc2c(c1)Cc1cccc(-c3cc(N4CCOCC4)cc(=O)[nH]3)c1O2)c1cccc(F)n1 (centres unmarked) [Example 2-14-21]
## Output < 100 nM

## Input Write down IC50 measured for item O=c1cc(N2CCOCC2)cc(-c2cccc3c2Sc2ccc(NC4CCCC4N4CCOCC4)cc2S3)[nH]1 (racemic) [Example 1-16-1-1]
## Output < 100 nM
